IC50 listing for selected molecules.
measured.on: Acetylcholinesterase (Rattus norvegicus, UniProt P37136)
Construct: the S1 fraction of a male Wistar rat cerebral cortex homogenate was used as a cholinesterase source; from tissue; host or cells: male Wistar rat cerebral cortex homogenate, S1 fraction
Sequence (P37136 32-614): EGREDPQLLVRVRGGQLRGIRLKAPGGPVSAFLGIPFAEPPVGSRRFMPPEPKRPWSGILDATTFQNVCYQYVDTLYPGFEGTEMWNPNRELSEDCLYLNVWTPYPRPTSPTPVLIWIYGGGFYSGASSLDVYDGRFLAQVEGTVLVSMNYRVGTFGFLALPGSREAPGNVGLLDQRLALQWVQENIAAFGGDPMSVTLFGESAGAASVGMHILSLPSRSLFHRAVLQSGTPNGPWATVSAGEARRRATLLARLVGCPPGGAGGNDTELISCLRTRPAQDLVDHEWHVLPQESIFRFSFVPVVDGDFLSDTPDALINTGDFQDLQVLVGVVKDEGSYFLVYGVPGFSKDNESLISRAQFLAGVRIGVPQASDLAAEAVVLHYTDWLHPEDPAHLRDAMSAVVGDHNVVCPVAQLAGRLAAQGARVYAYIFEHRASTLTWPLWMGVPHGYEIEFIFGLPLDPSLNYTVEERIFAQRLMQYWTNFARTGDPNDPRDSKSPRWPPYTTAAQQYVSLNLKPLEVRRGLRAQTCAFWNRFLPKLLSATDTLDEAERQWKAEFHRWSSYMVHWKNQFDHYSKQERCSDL
method.description: Acetylcholinesterase inhibiting activity using (acetyl-[3H])-acetylcholine, S1 fraction of rat cerebral cortex homogenate
Assay type: biochemical, male Wistar rat
run.parameters: rat cerebral cortex homogenate S1 fraction; 30 minutes of incubation; read-out: Acetylcholinesterase inhibiting activity IC50
Counter-ions that a name gives are not always drawn.
Reply numerically in µM, unit not repeated.

Some solved entries appear below for comparison.
Quick one: IC50 for `CCN(CCCCCN1C(=O)c2ccc([N+](=O)[O-])cc2C1=O)Cc1ccccc1C` ?
0.11

Give the measured IC50 of `CCN(CCCCCCN1C(=O)c2ccc([N+](=O)[O-])cc2C1=O)Cc1ccccc1` .
0.66

Return reported IC50; argument: `CCN(CCCCCN1C(=O)c2ccc(C)cc2C1=O)Cc1ccccc1`
1.8

Okay, next one:
IC50 for CC(=O)N(CCCCN(C)Cc1ccccc1)C(=O)/C=C/c1ccc([N+](=O)[O-])cc1 [Compound 15, hydrochloride] ?
19

---

measured.on: Acetylcholinesterase (Rattus norvegicus)
Construct: the S1 fraction of a male Wistar rat cerebral cortex homogenate was used as a cholinesterase source; from tissue; host or cells: male Wistar rat cerebral cortex homogenate, S1 fraction
method.description: Acetylcholinesterase inhibiting activity using (acetyl-[3H])-acetylcholine, S1 fraction of rat cerebral cortex homogenate
Format: biochemical, male Wistar rat
run.parameters: rat cerebral cortex homogenate S1 fraction; 30 minutes of incubation; read-out: Acetylcholinesterase inhibiting activity IC50
Counter-ions that a name gives are not always drawn.
Mark each entry yes if its IC50 sits below 2000 nM, and no for all others.

Completed entries (count: 5):
Item `CCN(CCCCCNC(=O)/C=C/c1ccc(S(C)(=O)=O)cc1)Cc1ccccc1` : IC50 beneath 2000 nM, strictly?
no

I wonder whether `CCN(CCCCCN1C(=O)c2ccc(NS(=O)(=O)c3ccc(C)cc3)cc2C1=O)Cc1ccccc1` has IC50 below 2000 nM. Can you tell?
no

Consider the compound `CCN(CCCCCN1C(=O)c2ccc(OC)cc2C1=O)Cc1ccccc1` . Is its IC50 strictly less than 2000 nM?
yes

Does `CCN(CCCCCCCN1C(=O)c2ccc([N+](=O)[O-])cc2C1=O)Cc1ccccc1` have IC50 strictly under 2000 nM?
no

Item CN(CCCCN1C(=O)c2ccc([N+](=O)[O-])cc2C1=O)Cc1ccccc1 [Compound 1, hydrochloride] : IC50 beneath 2000 nM, strictly?
no

---
Given `CCN(CCCCN1C(=O)c2ccc([N+](=O)[O-])cc2C1=O)Cc1ccccc1` , is recorded IC50 strictly lower than 2000 nM?
yes

Below 2000 nM on IC50? Entry `CC(=O)Nc1ccc2c(c1)C(=O)N(CCCCN(C)Cc1ccccc1)C2=O`
no

In plain terms, does `CCN(CCCCCN(C(C)=O)C(=O)/C=C/c1cccc(N)c1)Cc1ccccc1` come in under 2000 nM for IC50?
no

Please determine if `CN(CCCCCCN1C(=O)c2ccc([N+](=O)[O-])cc2C1=O)Cc1ccccc1` is below 2000 nM in terms of IC50.
yes

Identify whether the compound `CCN(CCCCCN1C(=O)c2ccc([N+](=O)[O-])cc2C1=O)Cc1ccccc1F` records IC50 below 2000 nM.
yes

Given `CCN(CCCCCN1C(=O)c2ccc(C(=O)NC)cc2C1=O)Cc1ccccc1` , is recorded IC50 strictly lower than 2000 nM?
yes

Input `CCN(CCCCCCN(C(C)=O)C(=O)/C=C/c1ccc([N+](=O)[O-])cc1)Cc1ccccc1` ; condition: IC50 strictly below 2000 nM. Does it hold?
no

Threshold test, IC50 < 2000 nM: `CCN(CCCCCNC(=O)/C=C/c1ccccc1[N+](=O)[O-])Cc1ccccc1`
no

Strictly below 2000 nM: is that where IC50 of `CCN(CCCCCNC(=O)/C=C/c1ccc(NC(C)=O)cc1)Cc1ccccc1` sits?
no

# check: IC50 < 2000 nM for `CCN(CCCCCNC(=O)/C=C/c1cccc(N)c1)Cc1ccccc1`
no

Below 2000 nM on IC50? Entry `CCCCN(CCCCN1C(=O)c2ccc([N+](=O)[O-])cc2C1=O)Cc1ccccc1`
yes

Is it true that IC50 reported for `CCN(CCCCCNC(=O)/C=C/c1ccc(SC)cc1)Cc1ccccc1` is less than 2000 nM?
no

Quick check: does CCN(CCCCCNC(=O)/C=C/c1ccc([S+](C)[O-])cc1)Cc1ccccc1 (centres unmarked) have IC50 under 2000 nM?
no

Find out if reported IC50 for `CCN(CCCCCN1C(=O)c2ccc(Cl)cc2C1=O)Cc1ccccc1` is less than 2000 nM
yes

Strictly below 2000 nM in IC50? `CCN(CCCCCN1C(=O)c2ccc(OS(C)(=O)=O)cc2C1=O)Cc1ccccc1`
yes

Bench note: check whether `CCN(CCCCCN1C(=O)c2ccc([N+](=O)[O-])cc2C1=O)Cc1ccc(Cl)cc1` shows IC50 below 2000 nM
yes

IC50 under 2000 nM? Item: `CCN(CCCCCN(C(C)=O)C(=O)/C=C/c1cccc(NC(C)=O)c1)Cc1ccccc1`
yes

Quick check: does `CN(CCCCNC(=O)/C=C/c1ccc([N+](=O)[O-])cc1)Cc1ccccc1` have IC50 under 2000 nM?
no

Decide: IC50 of CN(CCCCN1C(=O)c2ccc(N)cc2C1=O)Cc1ccccc1 [Compound 3, hydrochloride] strictly below 2000 nM?
no

is_below(IC50, 2000 nM) for `CCN(CCCCCNC(=O)/C=C/c1cccc([N+](=O)[O-])c1)Cc1ccccc1` ?
no

Answer whether the compound `CCN(CCCCCNC(=O)/C=C/c1ccc(C#N)cc1)Cc1ccccc1OC` has IC50 strictly less than 2000 nM
yes

Strictly below 2000 nM: is that where IC50 of `CN(CCCCNC(=O)/C=C/c1ccccc1[N+](=O)[O-])Cc1ccccc1` sits?
no

Could you please tell me whether IC50 recorded for `CCN(CCCCCNC(=O)/C=C/c1ccc(S(C)(=O)=O)cc1)Cc1ccccc1OC` is less than 2000 nM?
yes

# check: IC50 < 2000 nM for CCN(CCCCCN1C(=O)c2ccc(N)cc2C1=O)Cc1ccccc1 [Compound 10, dihydrochloride]
yes
